- procedure text: Blood levels and half-life of BL-P2024 after oral administration of various doses to mice (Table 5)
- Assay type: in vivo
- setup conditions: mouse, oral 25 mg/kg, 150 min, read-out: Blood level

molecule	unit text	concentration at […]
CC(C)(C)C(=O)OCOC(=O)C1N2C(=O)CC2S(=O)(=O)C1(C)CCl (stereo not shown) [BL-P2024]	ng/mL	700

====

- procedure text: Blood levels and half-life of BL-P2024 after oral administration of various doses to mice (Table 5)
- Type: in vivo
- setup conditions: mouse, oral 100 mg/kg

compound	half-life, h
CC(C)(C)C(=O)OCOC(=O)C1N2C(=O)CC2S(=O)(=O)C1(C)CCl (stereo not shown) [BL-P2024]	1.42
